Test system: RAW-Dual
Experiment: NF-kB SEAP reporter activity, fold change vs agonist alone; cytotoxicity flag (confluency mask): not cytotoxic; higher = enhanced NF-kB activity
Settings: agonist: Pam3CSK4 (TLR2/1) 0.1 ug/mL
The full ranking holds about 2,900 compounds; the median of “NF-kB SEAP reporter activity, fold change vs agonist alone” is about 0.99, and the highest 2% start at about 2.6. This is one part of a sample in which the highest values are shown more often than they occur.
Listed next: entries and their corresponding NF-kB SEAP reporter activity.

Check out these entries, answers already filled in.
| Compound | NF-kB SEAP reporter activity |
| --- | --- |
| O=C(O)CCCN1CCC(OC(c2ccc(Cl)cc2)c2ccccn2)CC1 (configuration not stated) (library stock concentration (final ~1000-fold dilution): 10 mM) | 0.895 |
| CC(C)C1=CC2=CCC3C(C)(C(=O)O)CCCC3(C)C2CC1 (configuration not stated) (library stock concentration (final ~1000-fold dilution): 10 mM) | 0.83 |
| COCCc1ccc(OCC(O)CNC(C)C)cc1.COCCc1ccc(OCC(O)CNC(C)C)cc1.O=C(O)CCC(=O)O (configuration not stated) (library stock concentration (final ~1000-fold dilution): 10 mM) | 0.868 |

Q: Provide NF-kB SEAP reporter activity value for the following compound: CCC1C(=O)N(C)c2cnc(Nc3ccc(C(=O)NC4CCC(N5CCN(CC6CC6)CC5)CC4)cc3OC)nc2N1C(C)C (configuration not stated) (library stock concentration (final ~1000-fold dilution): 10 mM)
Ans: 0.886

Q: Provide NF-kB SEAP reporter activity value for the following compound: COc1ccc(C(NC(=O)c2cnc(-c3cccnn3)nc2O)c2ccc(OC)cc2)cc1 (library stock concentration (final ~1000-fold dilution): 10 mM)
Ans: 1.02

Q: Provide NF-kB SEAP reporter activity value for the following compound: COc1cc2ncnc(Nc3ccc(Oc4ccccc4)cc3C)c2cc1OC.Cl (library stock concentration (final ~1000-fold dilution): 10 mM)
Ans: 0.42

Q: Provide NF-kB SEAP reporter activity value for the following compound: COc1cc(/C=C/CO)cc(OC)c1OC1OC(CO)C(O)C(O)C1O (configuration not stated) (library stock concentration (final ~1000-fold dilution): 10 mM)
Ans: 1.15

----------
Listed next: entries and their corresponding NF-kB SEAP reporter activity.
Tested on: RAW-Dual
Assay: NF-kB SEAP reporter activity, fold change vs agonist alone; higher = enhanced NF-kB activity
Details: library stock concentration (final ~1000-fold dilution): 10 mM; cytotoxicity flag (confluency mask): not cytotoxic; agonist: Imiquimod (TLR7) […]
Over roughly 2,900 compounds, “NF-kB SEAP reporter activity, fold change vs agonist alone” has its median near 0.99; the highest 2% begin near 2.6. For the sample, the highest values were picked, then their nearest neighbours and some compounds at random.

| Compound | NF-kB SEAP reporter activity |
| --- | --- |
| O=c1ccoc2cc(O)ccc12 | 1.18 |
| O=C1NC(=O)C(c2cn3c4c(cccc24)CCC3)C1c1c[nH]c2ccccc12 (centres undefined) | 2.44 |

Q: Provide NF-kB SEAP reporter activity value for the following compound: CCOc1cc(N)c([N+](=O)[O-])cc1C(=O)NC1CCN(CC2CC=CCC2)CC1.O=C(O)C(O)C(O)C(=O)O (centres undefined)
Ans: 1.28

Q: Provide NF-kB SEAP reporter activity value for the following compound: COc1ccc(-c2ccc3c(N4CCOCC4)nc(N4CC(C)OC(C)C4)nc3n2)cc1CO (centres undefined)
Ans: 0.91

Q: Provide NF-kB SEAP reporter activity value for the following compound: CC(C)NC(=O)C1CCC(n2c(=NC(=O)c3ccc(F)cc3)[nH]c3ccc(CN4CCC(C(C)(C)O)CC4)cc32)CC1 (centres undefined)
Ans: 1.44

Q: Provide NF-kB SEAP reporter activity value for the following compound: COc1ccc2cc(-c3[nH]c(-c4ccc(S(C)=O)cc4)nc3-c3ccncc3)ccc2c1 (centres undefined)
Ans: 1.81

Q: Provide NF-kB SEAP reporter activity value for the following compound: CC(C)=CCC[C@](C)(O)[C@H]1CC[C@]2(C)[C@@H]3CCC4C(C)(C)[C@@H](O)CC[C@]4(C)[C@H]3C[C@@H](O)[C@@]12C (some centres undefined)
Ans: 0.934

Q: Provide NF-kB SEAP reporter activity value for the following compound: C=C1CCCC2(C)C=C3OC(=O)C(C)=C3CC12 (centres undefined)
Ans: 0.726

----------
Test system: RAW-Dual
Assay: NF-kB SEAP reporter activity, fold change vs agonist alone; higher = enhanced NF-kB activity
Conditions: library stock concentration (final ~1000-fold dilution): 10 mM water; cytotoxicity flag (confluency mask): not cytotoxic; agonist: MPLA (TLR4) […]
Whole data set: some 2,900 compounds, median “NF-kB SEAP reporter activity, fold change vs agonist alone” near 0.99, cut for the highest 2% near 2.6. The entries come from a sample that favours the highest values as a whole.
Listed next: entries and their corresponding NF-kB SEAP reporter activity.

| Compound | System | NF-kB SEAP reporter activity |
| --- | --- | --- |
| Cl.O=C1c2cccc3c2C(CCC3)CN1C1CN2CCC1CC2 (stereo unspecified) | RAW-Dual | 0.711 |
| CCCCCOc1ccc(-c2cc(-c3ccc(C(=O)NC4CC(O)C(O)NC(=O)C5C(O)C(C)CN5C(=O)C(C(O)CC(N)=O)NC(=O)C(C(O)C(O)c5ccc(O)c(OS(=O)(=O)O)c5)NC(=O)C5CC(O)CN5C(=O)C(C(C)O)NC4=O)cc3)no2)cc1 (stereo unspecified) | RAW-Dual | 1.14 |
| CC(C)Cc1ccc(C(C)C(=O)O)cc1.NCCCCC(N)C(=O)O (stereo unspecified) | RAW-Dual | 1.08 |
| Cl.N=C(N)NC(=O)c1nc(Cl)c(N)nc1N.O.O | RAW-Dual | 1.01 |
| CCOc1ccc(CC2NC(=O)CCSSCC(C(=O)N3CCCC3C(=O)NC(CCCN)C(=O)NCC(N)=O)NC(=O)C(CC(N)=O)NC(=O)C(C(C)O)NC(=O)C(C(C)CC)NC2=O)cc1 (stereo unspecified) | RAW-Dual | 1.06 |

Please find the next compound below.
Q: Provide NF-kB SEAP reporter activity value for the following compound: CC(=O)N1CCCC1C(=O)NC(Cc1c[nH]cn1)C(=O)NC(CO)C(=O)NC(CS)C(=O)NC(CC(N)=O)C(N)=O (stereo unspecified)
Ans: 1.06

----------
Test system: RAW-Dual
Test: NF-kB SEAP reporter activity, fold change vs agonist alone; higher = enhanced NF-kB activity
Conditions: library stock concentration (final ~1000-fold dilution): 10 mM; cytotoxicity flag (confluency mask): not cytotoxic; agonist: Imiquimod (TLR7) […]
Over roughly 2,900 compounds, “NF-kB SEAP reporter activity, fold change vs agonist alone” has its median near 0.99; the highest 2% begin near 2.6. Shown is part of a subset that was picked to be rich in the highest values.
Listed next: entries and their corresponding NF-kB SEAP reporter activity.
Number, no unit, nothing else.

Check out these entries, answers already filled in.
| Compound | Recorded Number |
| --- | --- |
| O=C(Nc1ccc(OC(F)(F)F)cc1)c1sccc1NCc1ccnc2ccccc12 | 1.77 |
| COC1/C=C\C=C(/C)C(=O)NC2=CC(=O)C(NCCN(C)C)=C(CC(C)CC(OC)C(O)C(C)/C=C(\C)C1OC(N)=O)C2=O.Cl (centres undefined) | 0.497 |
| CC1(N)CCN(c2cnc(-c3cccc(Cl)c3Cl)c(N)n2)CC1.Cl | 1.11 |

Q: Provide NF-kB SEAP reporter activity value for the following compound: Oc1c(F)cc(-c2cnccc2-c2ccc(N3CCOCC3)cc2)cc1F
Ans: 1.08

Q: Provide NF-kB SEAP reporter activity value for the following compound: CC1CC(=O)c2c(ccc3c2C(=O)c2cccc(O)c2C3=O)C1 (centres undefined)
Ans: 1.02

Q: Provide NF-kB SEAP reporter activity value for the following compound: CCN(CC)C(=O)Nc1ccc(OCC(O)CNC(C)(C)C)c(C(C)=O)c1.Cl (centres undefined)
Ans: 2.4

Q: Provide NF-kB SEAP reporter activity value for the following compound: COC(C)Cn1c(=O)n(C)c2cnc3ccc(-c4cncc(C(C)(C)O)c4)cc3c21 (centres undefined)
Ans: 0.865

Q: Provide NF-kB SEAP reporter activity value for the following compound: CCCCNc1ccc(C(=O)OCCN(C)C)cc1.Cl
Ans: 0.843

----------
Tested on: RAW-Dual
Experiment: NF-kB SEAP reporter activity, fold change vs agonist alone; higher = enhanced NF-kB activity
Conditions: library stock concentration (final ~1000-fold dilution): 10 mM; cytotoxicity flag (confluency mask): not cytotoxic; agonist: Imiquimod (TLR7) […]
Whole data set: some 2,900 compounds, median “NF-kB SEAP reporter activity, fold change vs agonist alone” near 0.99, cut for the highest 2% near 2.6. The sample holds the highest values, similar compounds and a random draw of the others, so the mix is not that of the screen.
Property Measured: NF-kB SEAP reporter activity

| Compound | NF-kB SEAP reporter activity |
| --- | --- |
| COc1ccc(C(NC(=O)c2cnc(-c3cccnn3)nc2O)c2ccc(OC)cc2)cc1 | 0.974 |

Q: Provide NF-kB SEAP reporter activity value for the following compound: CC1c2cccc(O)c2C(=O)C2=C(O)C3(O)C(=O)C(C(N)=O)=C(O)C(N(C)C)C3C(O)C21.CC1c2cccc(O)c2C(=O)C2=C(O)C3(O)C(=O)C(C(N)=O)=C(O)C(N(C)C)C3C(O)C21.CCO.Cl.Cl.O (stereo unspecified)
Ans: 0.998
